biological target: Gal(a1-3)Gal(b1-4)Glc; assay: glycan array binding signal (z-score within array); higher = stronger binding; conditions: glycan notation: IUPAC condensed, linker removed
The sample as a whole holds a higher share of the strongest signals than the screen did.
Let's look at some binders and their measured glycan array binding signal (z-score).

Binder: Mcg Light Chain Dimer (Homo sapiens), Q6PIK1 (protein) MAGFPLLLTLLTHCAGSWGQSLLTQPPSVSGTPGQRVTISCSGSSSNIGINYVYWYQQIPGTAPKLLISTNDQRPSGVPDRFSGSKSGTSASLAIGGLRSEDEAHYYCAAWDDSMSGPGYAFGTGTKVTVLRQPKANPTVTLFPPSSEELQANKATLVCLISDFYPGAVTVAWKADGSPVKAGVETTKPSKQSNNKYAASSYLSLTPEQWKSHRSYSCQVTHEGSTVEKTVAPTECS
glycan array binding signal (z-score): -1.04
//
Binder: AT3G44510(29) (Arabidopsis thaliana), F4J341 (protein) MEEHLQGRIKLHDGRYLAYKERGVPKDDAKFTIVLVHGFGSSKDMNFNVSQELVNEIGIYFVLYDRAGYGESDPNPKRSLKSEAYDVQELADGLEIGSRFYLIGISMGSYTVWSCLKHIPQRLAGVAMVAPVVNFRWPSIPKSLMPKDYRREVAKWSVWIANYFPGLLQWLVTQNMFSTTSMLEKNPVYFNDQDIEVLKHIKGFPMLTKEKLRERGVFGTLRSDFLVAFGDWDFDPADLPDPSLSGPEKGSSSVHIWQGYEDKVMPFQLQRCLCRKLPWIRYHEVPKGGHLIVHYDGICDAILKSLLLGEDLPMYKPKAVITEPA
glycan array binding signal (z-score): -0.538
//
Binder: CTLX (Homo sapiens), Q6UXS0 (protein) SLCPLFWMEFKGHCYRFFPLNKTWAEADLYCSEFSVGRKSAKLASIHSWEENVFVYDLVNSCVPGIPADVWTGLHDHRQEGQFEWTDGSSYDYSYWDGSQPDDGVHADPEEEDCVQIWYRPTSALRSWNDNTCSRKFPFVCKIPSLTIH
glycan array binding signal (z-score): 1.11
//
Binder: UEA-I (Ulex europaeus), P22972 (protein) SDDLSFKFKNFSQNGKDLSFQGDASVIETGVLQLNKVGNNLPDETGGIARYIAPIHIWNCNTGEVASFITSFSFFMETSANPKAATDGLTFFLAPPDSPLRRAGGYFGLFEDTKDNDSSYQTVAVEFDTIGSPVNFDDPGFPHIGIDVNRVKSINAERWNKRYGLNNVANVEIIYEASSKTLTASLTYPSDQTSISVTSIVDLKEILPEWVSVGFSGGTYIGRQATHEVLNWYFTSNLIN
glycan array binding signal (z-score): -0.172
//
Binder: Mannose Binding Protein (Lactobacillus plantarum) (protein) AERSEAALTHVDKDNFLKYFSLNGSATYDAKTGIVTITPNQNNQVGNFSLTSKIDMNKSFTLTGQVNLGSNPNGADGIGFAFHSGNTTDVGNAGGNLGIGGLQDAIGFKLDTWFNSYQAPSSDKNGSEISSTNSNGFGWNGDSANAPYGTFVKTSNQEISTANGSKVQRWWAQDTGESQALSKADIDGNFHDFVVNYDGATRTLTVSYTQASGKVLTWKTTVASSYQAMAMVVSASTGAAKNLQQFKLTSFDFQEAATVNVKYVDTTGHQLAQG
glycan array binding signal (z-score): 13.6
